Every entry's value here was drawn from BigSolDB 2.1.

Conditions: in ethanol, 298.15 K
parameterMeasured: solubility (mole fraction)

lineNotation	testResult
O=C(/C=C/C=C/c1ccc2c(c1)OCO2)N1CCCCC1	0.00827

---

Conditions: in ethanol, 293.15 K

lineNotation	solubility (mole fraction)
O=C(/C=C/C=C/c1ccc2c(c1)OCO2)N1CCCCC1	0.00714

---

Conditions: in acetone, 303.15 K

lineNotation	solubility (mole fraction)
O=C(/C=C/C=C/c1ccc2c(c1)OCO2)N1CCCCC1	0.0113

---

Conditions: in ethanol, 318.15 K
parameterMeasured: solubility (mole fraction)

lineNotation	testResult
O=C(/C=C/C=C/c1ccc2c(c1)OCO2)N1CCCCC1	0.0143

---

Settings: in ethanol, 313.15 K

lineNotation	solubility (mole fraction)
O=C(/C=C/C=C/c1ccc2c(c1)OCO2)N1CCCCC1	0.0126

---

Conditions: in ethyl acetate, 303.15 K
parameterMeasured: solubility (mole fraction)

lineNotation	parameterMeasured	testResult
O=C(/C=C/C=C/c1ccc2c(c1)OCO2)N1CCCCC1	solubility (mole fraction)	0.0232
